The entries below are paired with their reported IC50.
- target or test system: MAPKAPK5 (Homo sapiens, UniProt Q8IW41)
- Construct: 1 mU MAPKAP-K5
- Sequence (Q8IW41 whole entry): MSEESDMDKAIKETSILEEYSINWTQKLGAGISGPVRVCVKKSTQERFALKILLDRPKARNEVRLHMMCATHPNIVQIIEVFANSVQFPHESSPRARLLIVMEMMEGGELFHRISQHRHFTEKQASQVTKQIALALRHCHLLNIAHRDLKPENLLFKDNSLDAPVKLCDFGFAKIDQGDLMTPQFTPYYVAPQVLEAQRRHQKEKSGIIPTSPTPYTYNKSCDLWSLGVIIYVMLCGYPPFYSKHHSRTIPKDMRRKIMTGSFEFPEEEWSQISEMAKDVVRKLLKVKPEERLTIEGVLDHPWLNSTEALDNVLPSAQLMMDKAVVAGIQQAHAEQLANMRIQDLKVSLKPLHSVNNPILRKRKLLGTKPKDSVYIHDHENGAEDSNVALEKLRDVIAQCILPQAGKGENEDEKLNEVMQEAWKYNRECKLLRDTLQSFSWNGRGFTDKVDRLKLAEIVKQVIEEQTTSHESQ
- method summary: MAPKAP-K5 assay (FlashPlate, 33P-ATP)
- Assay type: biochemical
- condition details: 0.6 μM ATP, 30 minutes at room temperature

Some compounds with known IC50 results, for comparison:
NC(=O)c1ccc(-c2cnc(Nc3cccnc3)c3nccn23)cc1 [Compound 96]
> 1000 nM
O=C1NCc2cc(-c3cnc(Nc4cnc(N5CCOCC5)nc4)c4nccn34)ccc21 [Compound 215]
101 to 500 nM
CCN(CC)CCNC(=O)c1ccc(Nc2ncc(-c3c(C)n[nH]c3C)n3ccnc23)cc1 [Compound 81]
> 1000 nM
NC(=O)c1cc(Nc2ncc(-c3cc(F)c(C(N)=O)c(F)c3)n3ccnc23)ccc1N1CCOCC1 [Compound 175]
101 to 500 nM
CCN(CCO)c1ccc(Nc2ncc(-c3ccc(O)cc3C)n3ccnc23)cc1 [Compound 3]
> 1000 nM
O=C(NCCc1cccnc1)c1ccc(Nc2ncc(-c3cn[nH]c3)n3ccnc23)cc1 [Compound 93]
101 to 500 nM
CCN(CC)CCNC(=O)c1ccc(Nc2ncc(-c3ccc(C(N)=O)cc3)n3ccnc23)cc1 [Compound 46]
> 1000 nM
COc1cccc(Nc2ncc(-c3ccc(C(N)=O)cc3)n3ccnc23)c1 [Compound 19]
> 1000 nM

// lookup IC50 for O=C(NC1CCNC1)c1ccc(Nc2ncc(-c3cn[nH]c3)n3ccnc23)cc1 (stereo not drawn) [Compound 55]
101 to 500 nM

----------
- Tested on: MMP1 expression by SFs
- method summary: 'MMP assay': MMP1 expression by 'complex trigger' activated synovial fibroblasts (MMP1 ELISA)
- Type: cell-based, human
- condition details: Homo sapiens, Fibroblast, RASFs, 48 hrs
The entries below are paired with their reported EC50.

Some molecules with known EC50 results, for comparison:
CCN(CC)CCNC(=O)c1ccc(Nc2ncc(-c3cnc(O)nc3O)n3ccnc23)cc1
> 1000 nM
Cn1cnnc1-c1ccc(Nc2ncc(-c3ccc(C(N)=O)cc3)n3ccnc23)cc1
501 to 1000 nM

// lookup EC50 for "O=C(NCCc1cccnc1)c1ccc(Nc2ncc(-c3cn[nH]c3)n3ccnc23)cc1"
> 1000 nM

// lookup EC50 for "CC(C)N1CCN(c2ccc(Nc3ncc(-c4coc(C(N)=O)c4)n4ccnc34)cc2)CC1"
501 to 1000 nM

// lookup EC50 for "O=C(c1ccc(Nc2ncc(-c3cn[nH]c3)n3ccnc23)cc1)N1CCOCC1"
> 1000 nM

// lookup EC50 for "c1cn2c(-c3nc[nH]n3)cnc(Nc3ccc(N4CCOCC4)cc3)c2n1"
> 1000 nM

// lookup EC50 for "Cc1cnc2c(Nc3ccc(N4CCOCC4)cc3)ncc(-c3ccc(C(N)=O)cc3)n12"
> 1000 nM

// lookup EC50 for "CN(C)Cc1cn(-c2ccc(Nc3ncc(-c4ccc(C(N)=O)cc4)n4ccnc34)cc2)nn1"
> 1000 nM

----------
- Test system: MMP1 expression by SFs
- method summary: 'MMP assay': MMP1 expression by 'complex trigger' activated synovial fibroblasts (MMP1 ELISA)
- Type: cell-based, human
- condition details: Homo sapiens, Fibroblast, RASFs, 48 hrs
- Experimental: A 384-well format ELISA for measurement of MMP1 is developed. Various primary antibodies are tested, as well as various ELISA protocols. […] Readout is performed on the Luminoscan Ascent Luminometer (Labsystems) with an integration time of 200 msec or with an Envision reader (Perkin Elmer). […]
The entries below are paired with their reported EC50.

CN1CCN(c2ccc(Nc3ncc(-c4csc(C(N)=O)c4)n4ccnc34)cc2)CC1 [Compound 118]
> 1000 nM
CC(C)(C)OC(=O)c1ccc(Nc2ncc(-c3cn[nH]c3)n3ccnc23)cc1 [Compound 22]
> 1000 nM

// lookup EC50 for Cn1nnc(-c2ccc(Nc3ncc(-c4cn[nH]c4)n4ccnc34)cc2)n1 [Compound 169]
101 to 500 nM

// lookup EC50 for CN1CCN(c2ccc(Nc3ncc(-c4cn[nH]c4)n4ccnc34)cc2)CC1 [Compound 14]
> 1000 nM
